# test_target: T1, murine HVEM (murine, UniProt Q80WM9 39-206, limits assumed); also: test concentration or dose not given here
# T1 construct: also called Mouse
# T1 sequence (looked up): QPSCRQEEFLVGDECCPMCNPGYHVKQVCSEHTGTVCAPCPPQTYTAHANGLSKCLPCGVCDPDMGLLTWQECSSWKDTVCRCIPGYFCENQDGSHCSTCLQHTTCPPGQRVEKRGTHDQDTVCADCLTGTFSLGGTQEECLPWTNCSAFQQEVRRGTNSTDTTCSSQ
# protocol_description: ELISA
recorded_endpoint: ELISA signal

1) Ab_061 (H5S19-13A16B) (antibody, V domains shown, also called Ab_61) VH: QIQLVQSGPELKKPGETVKISCKASGYTFTNFGVNWVKQAPGKGLKWMGWINTYTGEPTYADDFKGRFAFSLETSASTAYLRINNLKNEDTATYFCARSYYANYAYWGQGTTLTVSS VL: QIVLTQSPAIMSASPGEKVTLTCSASSSVDSSYLYWYQQKPGSSPKLWIYGTSNLASGVPARFSGSGSGTSYSLTISSMEAEDAASYFCHQWNSYPWTFGGGTKLEIK; 0.043
2) Ab_020 (H5S14-22A20A) (antibody, V domains shown, also called Ab_20) VH: EVQLQQSGPELVKPGASVKMSCKASGYTFTSYVMHWVKQKPGQGLEWIGYINPYNDGTKYNEKFKGKATLTSDKSSSTAYMELSSLTSEDSAVYYCARGIITTVIEPILYAMDYWGQGTSVTVSS VL: NIVLTQSPASLAVSLGQRATISCRASESVDSYGNSFMHWYQQKPGQPPKLLIYLASNLESGVPARFSGSGSRTDFTLTIDPVEADDAATYYCQQNNEDPYTFGGGTKLEIK; 0.043
3) Ab_050 (H5S19-9A11A) (antibody, V domains shown, also called Ab_50) VH: QVQLKQSGPGLVQPSQSLSITCTVSGFSLTTYGVHWVRQSPGKGLEWLGVIWSGGSTDYNAAFISRLSISKDNSKSQVFFKMNSLQANDTAIYYCARRGYGSPYYYAMDYWGQGTSVTVSS VL: EIVLTQSPALMAASPGEKVTITCSVSSSISSSNLHWYQQKSETSPKPWIYGTSNLASGVPVRFSGSGSGTSYSLTISSMEAEDAATYYCQQWSSYPLTFGAGTKLELK; 0.047
4) Ab_055 (H5S19-1A1A) (antibody, V domains shown, also called Ab_55) VH: DVQLQESGPGLVKPSQSLSLTCTVTGYSITSDYAWNWIRQFPGNKLEWMGYIAYSGGTSYSPSLKSRISITRDTSKNQFFLQLNSVTTEDTATYYCVYFKYGGAFAYWGQGTLVTVSA VL: NIVLTQSPASLAVSLGQRATISCRASESVDSYGNSLMHWYQQKPGQPPKLLIYLASNLESGVPARFSGSGSRTDFTLTIDPVEADDAATYYCQQNNEDPPTFGGGTKLEI; 0.042
5) Ab_073 (H5S20-9A9A) (antibody, V domains shown, also called Ab_73) VH: EVQLQQSGADLVKPGASVKLSCTASGFNIRDTYMHWVNQRPEQGLEWIGRIDPANGNTKYAPKFQGRATITADTSSNTAYLHLSSLTSEDTAVYYCAGYGNSPWFAYWGQGTLVTVSA VL: DVLMTQTPLSLPVNLGDQASISCRSSQSIVHSNGNTYLEWYLQKPGQSPKLLIYKVSNRFSGVPDRFSGSGSGTDFTLKISRVEAEDLGVYYCFQGSHVPLTFGAGTKLELK; 0.045
6) Ab_051 (H5S19-4A6A) (antibody, V domains shown, also called Ab_51) VH: QVQLKESGPGLVAPSQSLSITCTVSGFSLTGYGVNWVRQPPGKGLEWLGMIWGDGNTDYNSALKSRLSISKDNSKSQVFLKMNSLQTDDTARYYCARSYGSYWGQGTLVTVSA VL: QIVLTQSPAIMSASPGEKVTMTCSASSSVSYMYWYQQKPGSSPRLLIYDTSNLASGVPVRFSGSGSGTSYSLTISRMEAEDAATYYCQQWSSYPFTFGSGTKLEIK; 0.043
7) Ab_018 (H5S14-21A19A) (antibody, V domains shown, the values of that row are written under this molecule; also called Ab_18; Ab_018 and Ab_019) VH: QVQLQQPGSELVRPGASVKLSCKASGYTFTSYWMHWVKQRPGQGLEWIGNIYPGSGSTNYDEKFKSKATLTVDTSSSTAYMQLSSLTSEDSAVYYCTIYDGYYWGQGTLVTVSA VL: DIQMTQSPASLSVSVGETVTITCRASENIYSNLAWYQQKQGKSPQLLVYAATNLADGVPSRFSGSGSGTQYSLKINSLQSEDFGSYYCQHFWGTPRTFGGGTKLEIK; 0.043
8) Ab_083 (H5S20-49A39A) (antibody, V domains shown, also called Ab_153; Ab_83) VH: EVQLQQSGAELVKPGASVKLSCTASGFNIKDTYVHWVKERPEQGLEWIGRIDPANDNTKYAPKFQVKATITADTSSNTAYLQLSSLTSEDNAVYYCAPYGNYPAWFAYWGQGTLVTVSA VL: DVLMTQTPLSLPVSLGDQVSISCRSSQNIVHSNGNTYLEWYLQKPGQSPKLLIYKVSNRFSGVPDRFSGSGSGTDFTLKISRVEAEDLGVYYCFQGSHVPLTFGAGTKLELK; 0.043
9) Ab_016 (H5S14-17A15A) (antibody, V domains shown, also called Ab_16) VH: QVQLQQSGAELVRPGTSVKMSCKAAGYTFTNYWIGWVKQRPGHGLEWIGDIYPGGGYTNYNEKFKGKATLTADTSSSTAYMQLSSLTSEDSAIYYCARNGNSLDYWGQGTTLTVSS VL: SIVMTQTPKFLLVSAGDRVTITCKASQSVSNDVAWYQQKPGQSPKLLIYYESNRYTGVPDRFTGSGYGTDFTFTISTVQAEDLAVYFCQQDYSSPWTFGGGTKLEIK; 0.042
10) Ab_001 (H5S14-1A1A) (antibody, V domains shown, also called Ab_1) VH: DVKLVESGGGLVKPGGSLKLSCAASVFTFSRYTMSWVRQTPEKRLEWVATISSGGSYTYYPDSVKGRFTISRDNAKNTLYLQMSSLKSEDTAIYYCTRGGDGLFDYWGQGTALTVSS VL: DVQITQSPSYLAASPGETITINCRASKSISKYLAWYQEKPGKTNQLLIYSGSTLQSGIPSRFSGSGSGTDFTLTISSLEPEDFAMYYCQQHNEYPWTFGGGTKLEIK; 0.057
